- Test system: HCV genotype 1b replicon
- testProtocol: HCV replicon assay (HCV 1b_Huh-Luc/Neo-ET cell line, luciferase readout)
- Type: cell-based
- conditionSet: Hepatitis C virus; bicistronic genotype 1b replicon in Huh 7 cells, 72 h incubation, luciferase enzyme activity; read-out: Inhibition of HCV genotype 1b
endpointName: EC50

Example entries and their recorded answers appear below.
Per the record, "COC(=O)N[C@H](C(=O)N1CCC[C@H]1C(=O)NCc1ccc(-c2ccc(-c3cnc([C@@H]4CCCN4C(=O)[C@@H](NC(=O)OC)C(C)C)[nH]3)cc2)cn1)C(C)C" has EC50 of 10 to 999 nM

Per the record, "COC(=O)N[C@H](C(=O)N1CCC[C@H]1C(=O)NCc1ccc(-c2ccc(-c3cnc([C@@H]4CCCN4C(=O)[C@@H](NC(=O)OC)C(C)C)[nH]3)cc2)cc1)C(C)C" has EC50 of 10 to 999 nM

Please examine the following record next.
Per the record, "C[C@@H](NC(=O)C1CC1)C(=O)N1CCOC[C@H]1C(=O)Nc1ccc(-c2ccc(-c3cnc([C@@H]4COCCN4C(=O)[C@@H](C)NC(=O)C4CC4)[nH]3)cc2)cc1" has EC50 of 10 to 999 nM

----------
- System: HCV genotype 1b replicon
- testProtocol: HCV replicon assay (HCV 1b_Huh-Luc/Neo-ET cell line, luciferase readout)
- Type: cell-based
- conditionSet: Hepatitis C virus; bicistronic genotype 1b replicon in Huh 7 cells, 72 h incubation, luciferase enzyme activity; read-out: Inhibition of HCV genotype 1b
endpointName: EC50

Example entries and their recorded answers appear below.
Per the record, "COC(=O)N[C@@H](C(=O)N1CCC[C@H]1c1ncc(-c2ccc(-c3ccc(C(=O)NC[C@@H]4CCCN4C(=O)[C@H](NC(=O)N4CCN(C)CC4)c4ccccc4)cc3)cc2)[nH]1)c1ccccc1" has EC50 of < 1 nM

Per the record, "COC(=O)N[C@H](C(=O)N1CCC[C@H]1C(=O)N[C@@H](C)c1ccc(-c2ccc(-c3cnc([C@@H]4CCCN4C(=O)[C@@H](NC(=O)OC)C(C)C)[nH]3)cc2)cc1)C(C)C" has EC50 of < 1 nM

Per the record, "CC(C)(C)OC(=O)N[C@@H](C(=O)N1CCOC[C@H]1C(=O)Nc1ccc(-c2ccc(-c3cnc([C@@H]4CCCN4C(=O)[C@H](NC(=O)OC(C)(C)C)c4ccccc4)[nH]3)cc2)cc1)c1ccccc1" has EC50 of < 1 nM

Per the record, "COC(=O)N[C@@H](C)C(=O)N1CCC[C@H]1C(=O)N[C@@H](C)c1ccc(-c2ccc(-c3cnc([C@@H]4CCCN4C(=O)[C@H](C)NC(=O)OC)[nH]3)cc2)cc1" has EC50 of 1 to 9.9 nM

Per the record, "O=C(N[C@@H](C(=O)N1CCC[C@H]1c1ncc(-c2ccc(Sc3ccc(-c4cnc([C@@H]5CCCN5C(=O)[C@H](NC(=O)C5CC5)c5ccccc5)[nH]4)cc3)cc2)[nH]1)c1ccccc1)C1CC1" has EC50 of < 1 nM

Per the record, "COC(=O)N[C@@H](C(=O)N1CCC[C@H]1CNC(=O)c1ccc(-c2ccc(-c3cnc([C@@H]4CCCN4C(=O)[C@@H](c4ccccc4)N4CCOCC4)[nH]3)cc2)cc1)c1ccccc1" has EC50 of < 1 nM

Per the record, "COC(=O)N[C@@H](C)C(=O)N1CCC[C@H]1C(=O)N[C@H](C)c1ccc(-c2ccc(-c3cnc([C@@H]4CCCN4C(=O)[C@H](C)NC(=O)OC)[nH]3)cc2)cc1" has EC50 of 1 to 9.9 nM

Per the record, "O=C(N[C@@H](C(=O)N1CCC[C@H]1c1ncc(-c2ccc(Sc3ccc(-c4cnc([C@@H]5CCCN5C(=O)[C@H](NC(=O)N5CCOCC5)c5ccccc5)[nH]4)cc3)cc2)[nH]1)c1ccccc1)N1CCOCC1" has EC50 of < 1 nM

New cases:
Per the record, "COC(=O)N[C@@H](C)C(=O)N1CCC[C@H]1C(=O)Nc1ccc(-c2ccc(-c3cnc([C@@H]4CCCN4C(=O)[C@H](C)NC(=O)OC)[nH]3)cc2)cc1" has EC50 of 10 to 999 nM

Per the record, "O=C(N[C@@H](C(=O)N1CCC[C@H]1C(=O)Nc1ccc(-c2ccc(-c3cnc([C@@H]4CCCN4C(=O)[C@H](NC(=O)C4CC4)c4ccccc4)[nH]3)cc2)cc1)c1ccccc1)C1CC1" has EC50 of < 1 nM

----------
- System: HCV genotype 1b replicon
- testProtocol: HCV replicon assay (HCV 1b_Huh-Luc/Neo-ET cell line, luciferase readout)
- Format: cell-based
- conditionSet: Hepatitis C virus; bicistronic genotype 1b replicon in Huh 7 cells, 72 h incubation, luciferase enzyme activity; read-out: Inhibition of HCV genotype 1b
pEC50: −log10 of the molar value.
endpointName: pEC50

Example entries and their recorded answers appear below.
Reported pEC50 (HCV genotype 1b replicon) for entry "COC(=O)N[C@H](C(=O)N1CCC[C@H]1CNC(=O)c1ccc(-c2ccc(-c3cnc([C@@H]4CCCN4C(=O)[C@@H](NC(=O)OC)[C@@H](C)OC)[nH]3)cc2)cc1)[C@@H](C)OC" is > 9.00

Reported pEC50 (HCV genotype 1b replicon) for entry "COC(=O)N[C@H](C(=O)N1CCC[C@H]1C(=O)Nc1ccc(-c2ccc3c(c2)CCc2nc([C@@H]4CCCN4C(=O)[C@@H](NC(=O)OC)C(C)C)[nH]c2-3)cc1)C(C)C" is 8.00 to 9.00

Reported pEC50 (HCV genotype 1b replicon) for entry "COC(=O)N[C@@H](C(=O)N1CCC[C@H]1C(=O)NCc1ccc(-c2ccc3nc([C@@H]4CCCN4C(=O)[C@H](NC(=O)OC)c4ccccc4)[nH]c3c2)cc1)c1ccccc1" is > 9.00

Reported pEC50 (HCV genotype 1b replicon) for entry "O=C(NC[C@@H]1CCCN1C(=O)[C@H](NC(=O)C1CC1)c1ccccc1)c1ccc(-c2ccc(-c3cnc([C@@H]4CCCN4C(=O)[C@H](NC(=O)C4CC4)c4ccccc4)[nH]3)cc2)cc1" is > 9.00

Please examine the following record next.
Reported pEC50 (HCV genotype 1b replicon) for entry "C#CC[C@H](NC(=O)OC)C(=O)N1CCC[C@H]1C(=O)Nc1ccc(-c2ccc(-c3cnc([C@@H]4CCCN4C(=O)[C@H](CC#C)NC(=O)OC)[nH]3)cc2)cc1" is 8.00 to 9.00

----------
- Test system: HCV genotype 1b replicon
- testProtocol: HCV replicon assay (HCV 1b_Huh-Luc/Neo-ET cell line, luciferase readout)
- Format: cell-based
- conditionSet: Hepatitis C virus; bicistronic genotype 1b replicon in Huh 7 cells, 72 h incubation, luciferase enzyme activity; read-out: Inhibition of HCV genotype 1b
pEC50: −log10 of the molar value.
This listing pairs molecules with measured pEC50.

Per the record, "COC(=O)N[C@H](C(=O)N1CCC[C@H]1C(=O)N[C@H](C)c1ccc(-c2ccc(-c3cnc([C@@H]4CCCN4C(=O)[C@@H](NC(=O)OC)C(C)C)[nH]3)cc2)cc1)C(C)C" has pEC50 of 8.00 to 9.00

Per the record, "COC(=O)N[C@H](C(=O)N1CCC[C@H]1CNC(=O)c1ccc(-c2ccc(-c3cnc([C@@H]4CCCN4C(=O)[C@@H](NC(=O)OC)C(C)C)[nH]3)cc2)cn1)C(C)C" has pEC50 of 8.00 to 9.00

Please examine the following record next.
Per the record, "CC(C)[C@@H](NC(=O)OC(C)(C)C)C(=O)N1CCC[C@H]1c1ncc(-c2ccc(Oc3ccc(-c4cnc([C@@H]5CCCN5C(=O)[C@H](NC(=O)OC(C)(C)C)C(C)C)[nH]4)cc3)cc2)[nH]1" has pEC50 of 8.00 to 9.00

----------
- Tested on: HCV genotype 1b replicon
- testProtocol: HCV replicon assay (HCV 1b_Huh-Luc/Neo-ET cell line, luciferase readout)
- Type: cell-based
- conditionSet: Hepatitis C virus; bicistronic genotype 1b replicon in Huh 7 cells, 72 h incubation, luciferase enzyme activity; read-out: Inhibition of HCV genotype 1b
- Method: Biological activity of the compounds of the invention was determined using an HCV replicon assay. The HCV 1b_Huh-Luc/Neo-ET cell line persistently expressing a bicistronic genotype 1b replicon in Huh 7 cells was obtained from ReBLikon GMBH. This cell line was used to test compound inhibition using luciferase enzyme activity readout as a measurement of compound inhibition of replicon levels. […] The EC50 value was determined using GraphPad Prism and the following equation: […]
endpointName: EC50

Example entries and their recorded answers appear below.
Per the record, COC(=O)N[C@H](C(=O)N1CCC[C@H]1c1nc2c([nH]1)-c1ccc(-c3ccc(NC(=O)[C@@H]4CCCN4C(=O)[C@H](NC(=O)OC)c4ccccc4)cc3)cc1CC2)C(C)C [Compound 117] has EC50 of < 1 nM

Per the record, C[C@H](NC(=O)[C@@H]1CCCN1C(=O)[C@H](NC(=O)C1CC1)c1ccccc1)c1ccc(-c2ccc(-c3cnc([C@@H]4CCCN4C(=O)[C@H](NC(=O)C4CC4)c4ccccc4)[nH]3)cc2)cc1 [Compound 37] has EC50 of < 1 nM

Per the record, COC(=O)N[C@H](C(=O)N1CCC[C@H]1C(=O)N[C@H](C)c1ccc(-c2ccc(-c3cnc([C@@H]4CCCN4C(=O)[C@@H](NC(=O)OC)[C@@H](C)OC)[nH]3)cc2)cc1)[C@@H](C)OC [Compound 102] has EC50 of 10 to 999 nM

New cases:
Per the record, COC(=O)N[C@H](C(=O)N1CCC[C@H]1C(=O)NCc1ccc(-c2ccc3cc(-c4cnc([C@@H]5CCCN5C(=O)[C@@H](NC(=O)OC)C(C)C)[nH]4)ccc3n2)cc1)C(C)C [Compound 86] has EC50 of 1 to 9.9 nM

Per the record, O=C(N[C@@H](C(=O)N1CCOC[C@H]1C(=O)Nc1ccc(-c2ccc(-c3cnc([C@@H]4CCCN4C(=O)[C@H](NC(=O)C4CC4)c4ccccc4)[nH]3)cc2)cc1)c1ccccc1)C1CC1 [Compound 3] has EC50 of < 1 nM
